The values you see were collected from PubChem BioAssay.

# MEASUREMENT_DESCRIPTION: differential killing of epithelial or mesenchymal cells, primary screen, imaging, PC-3E GFP, TEM4-18 mCherry, co-culture (AID 1345086);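 note: normalised mesenchymal count divided by normalised epithelial count so high means epithelial killing; cells exposed to compound for 72 h before imaging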
# CONDITION_DESCRIPTION: imaging cell counts, at 1 µM, actives lie on both sides
// classify(record): look up red/green cell ratio (normalised) in ranges A (below 0.9), B (0.9 to below 1), C (1 or more)

Here's what some known entries look like.
# COMPOUND, GROUP
records = [
    ("C=C(C)c1cc2cc(C(C)=O)c(O)cc2o1", "A"),
    ("Cc1ccc(N=CN(C)C=Nc2ccc(C)cc2C)c(C)c1", "C"),
    ("CN(C)C(=S)SSC(=S)N(C)C", "C"),
]

Could you place C[N+](C)(C)CC(=O)[O-] in its proper category? Many thanks.
C

GET /class?item= Oc1cccc2cccnc12
C

Using the reported red/green cell ratio (normalised), which band applies to COc1ccc(Cc2nccc3cc(OC)c(OC)cc23)cc1OC ?
A

Please let me know in which category the item CN1CCc2cc3c(cc2C1O)OCO3 (centres undefined) belongs.
C

Please indicate the class for CC(=O)NC1CCSC1=O (centres undefined) based on its red/green cell ratio (normalised).
B

Note: place this compound into its band. Item: Oc1cc(Cl)ccc1Oc1ccc(Cl)cc1Cl
A

Record Nc1ccncc1 — which class?
A

Exercise: read the entry C/C=C/c1ccc2c(c1)OCO2 and state which class it falls under.
B

Which of the defined bands does the recorded red/green cell ratio (normalised) of CCOC(=O)CC(SP(=S)(OC)OC)C(=O)OCC (centres undefined) sit within?
C

Which bin should I file CC(O)(CS(=O)(=O)c1ccc(F)cc1)C(=O)Nc1ccc(C#N)c(C(F)(F)F)c1 (centres undefined) under?
C

Lab note: which band did CC(=O)O[C@@H]1C[C@@]2(C)[C@H](c3ccoc3)C[C@H]3O[C@]32[C@]2(C)C(=O)C(O)=C3C(C)(C)C(=O)C=C[C@]3(C)C12 (some centres undefined) land in?
B

Into which category would you place CC(Cc1ccc(O)cc1)NCC(O)c1cc(O)cc(O)c1 (centres undefined) ?
C

Category of C[C@@H]1O[C@@H](O[C@H]2CC[C@]3(C=O)C4CC[C@]5(C)[C@@H](C6=CC(=O)OC6)CC[C@]5(O)C4CC[C@]3(O)C2)[C@H](O)[C@H](O)[C@H]1O (some centres undefined) , please.
A

Dear colleague, I would appreciate it if you could identify the bin for CC(NC(C)(C)C)C(=O)c1cccc(Cl)c1 (centres undefined) and reply at your convenience.
C

For CC(C)=CCCC1(C)C=Cc2c(O)c3c(c(CC=C(C)C)c2O1)OC12C(CC4CC1C(C)(C)OC2(C/C=C(/C)C(=O)O)C4O)C3=O (centres undefined) , which red/green cell ratio (normalised) bin applies?
C

Using the reported red/green cell ratio (normalised), which band applies to COc1cc(OC)c(OC)cc1C=O ?
C

Category of O=C(CCCN1CCC2(CC1)C(=O)NCN2c1ccccc1)c1ccc(F)cc1 , please.
C

Form field 'band' for COc1ccc(CN2CCNCC2)c(OC)c1OC
B

Please indicate the class for C[C@@H]1CC[C@@]2(OC1)OC1C(O)C3C4CC[C@H]5C[C@H](O[C@@H]6O[C@H](CO)[C@H](O[C@@H]7O[C@H](CO)[C@@H](O)[C@H](O[C@@H]8OC[C@@H](O)[C@H](O)[C@H]8O)[C@H]7O[C@@H]7O[C@H](CO)[C@H](O)[C@H](O[C@@H]8O[C@H](CO)[C@@H](O)[C@H](O)[C@H]8O)[C@H]7O)[C@H](O)[C@H]6O)[C@H](O)C[C@]5(C)C4CC[C@]3(C)C1[C@@H]2C (some centres undefined) based on its red/green cell ratio (normalised).
A

Form: Item = C[N+]1(C)C2CCC1CC(OC(=O)C(CO)c1ccccc1)C2 (centres undefined) ; Class = ?
C

Field: class (red/green cell ratio (normalised)) — entry: CC[C@H]1C2CC3[C@@H]4N(C)c5ccccc5[C@]45C[C@@H](C2C5O)N3[C@@H]1O (some centres undefined)
C

---

# MEASUREMENT_DESCRIPTION: growth inhibition of DIPG glioma cells, dose response, cell-based, JHH-DIPG-1, MIPE4.0, CellTiter-Glo, qHTS (AID 1347062);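 for AC50: cells exposed to compound for two days before readout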
# CONDITION_DESCRIPTION: JHH-DIPG-1 viability, CellTiter-Glo ATP luminescence
Results filed as inconclusive are left out. Active and inactive are the calls of the source. No cut-off is given here; in the data, nearly all actives have AC50 up to about 27 µM.
Field 'call' accepts true for active, false for inactive

Reference set (4 entries):
# COMPOUND_STRING, GROUP
measured = [
    ("CCN1CCN(C(=O)Cc2ccc(Nc3ncc(F)c(Nc4ccc(C(=O)Nc5ccccc5Cl)cc4)n3)cc2)CC1", "true"),
    ("COc1cccc2c1[C@]13CCN(CC4CC4)[C@H](C2)[C@]1(OC)CCC(=O)C3", "false"),
    ("Fc1ccc(C(OCCN2CCN(CCCc3ccccc3)CC2)c2ccc(F)cc2)cc1", "true"),
    ("CC(=O)Nc1ccc(OC[C@](C)(O)C(=O)Nc2ccc([N+](=O)[O-])c(C(F)(F)F)c2)cc1", "false"),
]

As a next step, examine the compound that follows.
Entry O=C(N[C@H]1CN2CCC1CC2)c1ccc(Cl)cc1 : call = ?
false

---

# MEASUREMENT_DESCRIPTION: antimalarial activity against Dd2 strain (AID 2302);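 note: 0% = DMSO untreated growth and 100% = chloroquine plus artemisinin killed control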
# CONDITION_DESCRIPTION: P. falciparum Dd2 in RBCs, LDH growth readout, 72 h; at 2 µM
Calls of active or inactive are those of the source.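 The calls were made as follows: active = growth inhibition above 50% at the single 2 µM test dose, taken to imply half-maximal potency below 2 µM; inactive = the rest.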
Would you mind answering with one of these outcomes? active, inactive

# MOLECULE, GROUP
measured = [
    ("N[C@@H](CCN1CCC(c2cccc(O)c2)CC1)Cc1ccc(F)c(F)c1", "inactive"),
    ("CN1CC=C(c2c[nH]c3ccc(-c4ccccc4)cc23)CC1", "active"),
    ("O=C(Nc1ccc(Oc2ccccc2)cc1)NC1CCC(CN2CCC(c3c[nH]c4ccccc34)CC2)CC1 (stereo unspecified)", "active"),
    ("CCOC(C(=O)OCC1CCCN1C(C)C)(c1ccccc1)c1ccccc1 (stereo unspecified)", "inactive"),
    ("OC(CNC1CCCCCCC1)c1ccc(Cl)c(Cl)c1 (stereo unspecified)", "active"),
]

Returns: the outcome recorded for COc1ccc(CC(C)NCC(O)c2cccc(C(F)(F)F)c2)cc1F (stereo unspecified) in this assay.
active

---

# MEASUREMENT_DESCRIPTION: stimulators of insulin release from INS-1E, primary screen, cell-based, 5 mM glucose, NPC library (AID 1117329)
# CONDITION_DESCRIPTION: rat INS-1E insulin secretion, at 10 µM, stronger effect = higher value
The source made the active and inactive calls.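 The calls were made as follows: active = compound raises insulin release from rat beta cells at 5 mM glucose, no numeric limit stated; inactive = the rest.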
Provide the reported insulin secretion stimulation of each item.

Worked examples, 8 compounds total:
# COMPOUND, RESULT
rows = [
    ("CC(C)=CC1C(C(=O)OCN2C(=O)C3=C(CCCC3)C2=O)C1(C)C (stereo not drawn)", "-1.8% (inactive)"),
    ("CCC(CC)(CNC(=O)CCCO)c1cccc(OC)c1", "0.4% (inactive)"),
    ("CCC(COC(=O)c1cc(OC)c(OC)c(OC)c1)(c1ccccc1)N(C)C (stereo not drawn)", "2.2% (inactive)"),
    ("CC(C)c1cccc(C(C)C)c1O", "0.6% (inactive)"),
    ("N[C@@H]1C[C@H]1c1ccccc1", "0.5% (active)"),
    ("O=C1C2CC=CCC2C(=O)N1SC(Cl)(Cl)Cl (stereo not drawn)", "0.6% (inactive)"),
    ("CC[n+]1c(-c2ccccc2)c2cc(N)ccc2c2ccc(N)cc21", "2.1% (inactive)"),
    ("Nc1ccc(N)cc1", "-3.1% (inactive)"),
]

The following compounds each have a reported value; give each one's insulin secretion stimulation.
1. O=c1[nH]oc2c1CCNC2
2. CN1C(=S)CN=C(c2ccccc2)c2cc(Cl)ccc21
3. c1ccc2c(c1)sc1ccccc12

1.95% (inactive)
1.75% (inactive)
-1.4% (inactive)

Your task in this section: give insulin secretion stimulation for each listed record.
1. NCC(CC(=O)O)c1ccc(Cl)cc1 (stereo not drawn)
2. CCN(CC)C(=O)N[C@@H]1C=C2c3cccc4[nH]cc(c34)C[C@@H]2N(C)C1

1: 2.7% (inactive); 2: 2.6% (inactive)

---

For each of the compounds below, state its inhibition.
# MEASUREMENT_DESCRIPTION: LFS_MB_P medulloblastoma growth inhibition, cell-based, chromothripsis tumors, cisplatin or BGB combos (AID 1671449);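 note: cells exposed for 96 hours; 0% = vehicle DMSO and 100% = killing by high DMSO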
# CONDITION_DESCRIPTION: LFS_MB_P medulloblastoma cells, measured here: combination with BGB IC40, at 0.005 µM
Just the number plus its unit, please.

In the examples that follow, each entry is paired with its recorded inhibition.
# COMPOUND, inhibition
rows = [
    ("CC1(C)C(C(=O)Nc2ccc(S(=O)(=O)c3ccc(NC(=O)C4C(C)(C)C4(C)C)cc3)cc2)C1(C)C", "-46.1%"),
    ("Cn1c(COP(=O)(NCCBr)NCCBr)cnc1[N+](=O)[O-]", "-32.5%"),
    ("CCC1(c2ccccc2)C(=O)NC(=O)NC1=O", "-59.2%"),
    ("Cn1c(CCCC(=O)O)nc2cc(N(CCCl)CCCl)ccc21", "-30.6%"),
    ("O=C1CCC[C@@H]2[C@H]3CCCN4CCC[C@@H](CN12)[C@@H]34", "-23%"),
    ("COc1cc(C2c3cc4c(cc3C(O)C3COC(=O)C23)OCO4)cc(OC)c1OC (stereo not given)", "-36%"),
]

Hi there! I need inhibition for each item below, if you can.
1. O=c1[nH]c(=O)n(C2OC(CO)C(O)C2O)cc1F (stereo not given)
2. NC(Cc1ccc(N(CCCl)CCCl)cc1)C(=O)O (stereo not given)
3. CN(C)NC(=O)CCC(=O)O
4. Cc1c2ccncc2c(C)c2c1[nH]c1ccccc12

["-24.2%", "-17.8%", "-30.2%", "16.3%"]
